Biological target: acid sphingomyelinase (Homo sapiens, UniProt P17405)
Construct: an acid sphingomyelinase originating from human placenta (a product of Sigma Co.) was used as the enzyme source; purchased Sigma Co; host or cells: human placenta (tissue-derived enzyme)
Sequence (P17405 47-631): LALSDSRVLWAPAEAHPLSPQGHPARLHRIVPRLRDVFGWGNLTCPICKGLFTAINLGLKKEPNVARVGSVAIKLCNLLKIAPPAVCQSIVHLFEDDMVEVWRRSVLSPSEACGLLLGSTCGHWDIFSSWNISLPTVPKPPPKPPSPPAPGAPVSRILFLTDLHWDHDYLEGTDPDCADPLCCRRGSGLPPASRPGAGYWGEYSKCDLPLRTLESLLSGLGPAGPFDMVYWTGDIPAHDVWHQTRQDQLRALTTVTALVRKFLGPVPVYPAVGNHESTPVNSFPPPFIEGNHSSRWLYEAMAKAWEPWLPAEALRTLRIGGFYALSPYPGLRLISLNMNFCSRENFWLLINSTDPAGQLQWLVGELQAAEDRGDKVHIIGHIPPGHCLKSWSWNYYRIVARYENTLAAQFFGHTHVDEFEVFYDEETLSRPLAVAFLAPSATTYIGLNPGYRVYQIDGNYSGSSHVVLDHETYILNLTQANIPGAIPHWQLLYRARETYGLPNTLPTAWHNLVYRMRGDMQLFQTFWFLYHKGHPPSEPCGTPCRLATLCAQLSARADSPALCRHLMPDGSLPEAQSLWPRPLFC
Assay: Influence on human placenta-originated acid sphingomyelinase
Format: biochemical
Conditions: human placenta enzyme (Sigma), pH 5.0, 37° C., 30 minutes; read-out: concentration corresponding to 50% inhibition of acid sphingomyelinase (converted)
Readout Label: IC50 (µM)

CCC(C)CC(C)CC(C)C(OC1OC(COC(C)=O)C(O)C(O)C1O)C(C)/C=C(\C)C(O)C(C)/C=C(\C)C(O)C(C)/C=C(\C)C(=O)OCC(O)C(O)C(O)CO (single isomer, unassigned) [KF-1040T5A] : 239
CCC(C)CC(C)CC(C)C(OC1OC(CO)C(O)C(O)C1O)C(C)/C=C(\C)C(O)C(C)/C=C(\C)C(O)C(C)/C=C(\C)C(=O)OCC(O)C(O)C(O)CO (single isomer, unassigned) [KF-1040T4A] : 300
CCC(C)CC(C)CC(C)C(OC1OC(CO)C(O)C(O)C1O)C(C)/C=C(\C)C(O)C(C)/C=C(\C)C(O)C(C)/C=C(\C)C(=O)OCC(O)C(O)C(O)CO (single isomer, unassigned) [KF-1040T4B] : 90.1
CCC(C)CC(C)CC(C)C(OC1OC(COC(C)=O)C(O)C(O)C1O)C(C)/C=C(\C)C(O)C(C)/C=C(\C)C(O)C(C)/C=C(\C)C(=O)OCC(O)C(O)C(O)CO (single isomer, unassigned) [KF-1040T5B] : 59.8

----------
Biological target: diacylglycerol acyltransferase
Experiment: Inhibitory action against rat-originated diacylglycerol acyltransferase (rat liver microsomal fraction)
Assay type: biochemical
Settings: [1-14C]palmitoyl-CoA, 23° C., 15 minutes
Readout Label: drug concentration corresponding to 50% inhibition of diacylglycerol acyltransferase (µg/mL)

CCC(C)CC(C)CC(C)C(OC1OC(COC(C)=O)C(O)C(O)C1O)C(C)/C=C(\C)C(O)C(C)/C=C(\C)C(O)C(C)/C=C(\C)C(=O)OCC(O)C(O)C(O)CO (single isomer, unassigned) [KF-1040T5B] : 14.7
CCC(C)CC(C)CC(C)C(OC1OC(CO)C(O)C(O)C1O)C(C)/C=C(\C)C(O)C(C)/C=C(\C)C(O)C(C)/C=C(\C)C(=O)OCC(O)C(O)C(O)CO (single isomer, unassigned) [KF-1040T4B] : 11.6
CCC(C)CC(C)CC(C)C(OC1OC(CO)C(O)C(O)C1O)C(C)/C=C(\C)C(O)C(C)/C=C(\C)C(O)C(C)/C=C(\C)C(=O)OCC(O)C(O)C(O)CO (single isomer, unassigned) [KF-1040T4A] : 13.2
CCC(C)CC(C)CC(C)C(OC1OC(COC(C)=O)C(O)C(O)C1O)C(C)/C=C(\C)C(O)C(C)/C=C(\C)C(O)C(C)/C=C(\C)C(=O)OCC(O)C(O)C(O)CO (single isomer, unassigned) [KF-1040T5A] : 18.0

----------
Assay: Solubility in solvents
Assay type: physicochemical
Conditions: methanol, benzene, chloroform, ethyl acetate
Readout Label: Solubility in solvents: methanol, benzene, chloroform and ethyl acetate

CCC(C)CC(C)CC(C)C(OC1OC(COC(C)=O)C(O)C(O)C1O)C(C)/C=C(\C)C(O)C(C)/C=C(\C)C(O)C(C)/C=C(\C)C(=O)OCC(O)C(O)C(O)CO (single isomer, unassigned) [KF-1040T5A] : soluble
CCC(C)CC(C)CC(C)C(OC1OC(CO)C(O)C(O)C1O)C(C)/C=C(\C)C(O)C(C)/C=C(\C)C(O)C(C)/C=C(\C)C(=O)OCC(O)C(O)C(O)CO (single isomer, unassigned) [KF-1040T4A] : soluble
CCC(C)CC(C)CC(C)C(OC1OC(CO)C(O)C(O)C1O)C(C)/C=C(\C)C(O)C(C)/C=C(\C)C(O)C(C)/C=C(\C)C(=O)OCC(O)C(O)C(O)CO (single isomer, unassigned) [KF-1040T4B] : soluble
CCC(C)CC(C)CC(C)C(OC1OC(COC(C)=O)C(O)C(O)C1O)C(C)/C=C(\C)C(O)C(C)/C=C(\C)C(O)C(C)/C=C(\C)C(=O)OCC(O)C(O)C(O)CO (single isomer, unassigned) [KF-1040T5B] : soluble

Reference for the values: patent US6608185B1
